Cited source for all entries: patent US11617726B2

# System: Acinetobacter baumannii isolates
# Protocol Summary: Antimicrobial susceptibility test, disc diffusion method (CLSI M100-S24)
# Assay type: cell-based
# Experimental Context: isolate AB17; disc diffusion
Measure: Inhibition zone (mm)
Kindly answer with a numeric value in mm, unit omitted.

Need Inhibition zone of C[C@@H](O)[C@H]1C(=O)N2C(C(=O)O)=C(SCCN=CN)C[C@H]12 [IP, Imipenem] , thanks.
15

Need Inhibition zone of O=C(N[C@H](CO)[C@H](O)c1ccc([N+](=O)[O-])cc1)C(Cl)Cl [CHL, Chloramphenicol] , thanks.
13

Need Inhibition zone of C[C@H]1[C@H](NC(=O)/C(=N\OC(C)(C)C(=O)O)c2csc(N)n2)C(=O)N1S(=O)(=O)O [ATM, Aztreonam] , thanks.
15

Need Inhibition zone of NCC[C@H](O)C(=O)N[C@@H]1C[C@H](N)[C@@H](O[C@H]2O[C@H](CN)[C@@H](O)[C@H](O)[C@H]2O)[C@H](O)[C@H]1O[C@H]1O[C@H](CO)[C@@H](O)[C@H](N)[C@H]1O [AK, Amikacin] , thanks.
22

Need Inhibition zone of NC[C@@H]1O[C@H](O[C@H]2[C@@H](O)[C@H](O[C@@H]3[C@@H](O)[C@H](N)C[C@H](N)[C@H]3O[C@H]3O[C@H](CN)[C@@H](O)[C@H](O)[C@H]3N)O[C@@H]2CO)[C@H](N)[C@@H](O)[C@@H]1O [NEO, Neomycin] , thanks.
20

Need Inhibition zone of C[C@H]1COc2c(N3CCN(C)CC3)c(F)cc3c(=O)c(C(=O)O)cn1c23 [LEV, Levofloxacin] , thanks.
11
